- test.target: UniProtKB Q13822
- assay.procedure: Competitive inhibition of human recombinant C-terminal FLAG-tagged autotaxin expressed in baculovirus-infected Sf9 cells assessed as FS-3 hydrolysis by Michaelis-Menten method
pKi: −log10 of the molar value.
assay.readout: pKi

1. COc1cc(-c2ccc(/N=N/c3c(S(=O)(=O)O)cc4cc(S(=O)(=O)O)cc(N)c4c3O)c(OC)c2)ccc1/N=N/c1c(S(=O)(=O)O)cc2cc(S(=O)(=O)O)cc(N)c2c1O :: 6.57
2. Cc1cc(-c2ccc(/N=N/c3ccc4c(S(=O)(=O)O)cc(S(=O)(=O)O)c(N)c4c3O)c(C)c2)ccc1/N=N/c1ccc2c(S(=O)(=O)O)cc(S(=O)(=O)O)c(N)c2c1O :: 6.08
